FYI, the data here is from patent US5077035A.

Experiment: Brain distribution of 5-[125I]iodobenzovesamicol in mice, control and blocked (Example 10, Table III)
Assay type: in vivo, CD-1 mice
Conditions: mouse, blood, iv, 10 uCi, Control; 4 h after i.v. injection; normalized to a 20 g mouse; read-out: Concentration, blood
Property: tissue uptake at 4 h (%ID/g)
Give the quantity in %ID/g, number only.

QUERY: Can you look up the measured tissue uptake at 4 h of O[C@@H]1Cc2cccc([125I])c2C[C@H]1N1CCC(c2ccccc2)CC1 [[^125 I]-(-)-IBVM] for me?
RESULT: 1.01

* * *

Assay: in vivo
Conditions: mouse, cerebellum, iv
Property: tissue uptake at 4 h

molecule="O[C@@H]1Cc2cccc([125I])c2C[C@H]1N1CCC(c2ccccc2)CC1 [[^125 I]-(-)-IBVM]" property="tissue uptake at 4 h" reading="0.23 %ID/g"

// moving on: another record for tissue uptake at 4 h
QUERY: Can you look up the measured tissue uptake at 4 h of O[C@H]1Cc2cccc([125I])c2C[C@@H]1N1CCC(c2ccccc2)CC1 [[^125 I]-(+)-IBVM] for me?
RESULT: 0.06 %ID/g

* * *

Experiment: Brain distribution of 5-[125I]iodobenzovesamicol in mice, control and blocked (Example 10, Table III)
Type: in vivo, CD-1 mice
Conditions: mouse, striatum, iv, 10 uCi, Blocked: (±)-vesamicol 0.53 mg/kg, ip, 10 min prior; 4 h after i.v. tracer; normalized to a 20 g mouse; read-out: Concentration, striatum
Property: tissue uptake at 4 h (%ID/g)
Give the quantity in %ID/g, number only.

QUERY: Can you look up the measured tissue uptake at 4 h of O[C@@H]1Cc2cccc([125I])c2C[C@H]1N1CCC(c2ccccc2)CC1 [[^125 I]-(-)-IBVM] for me?
RESULT: 1.97

* * *

Measured tissue uptake at 4 h of individual entries
Assay: in vivo
Details: mouse, striatum, iv
Give the quantity in %ID/g, number only.

molecule="O[C@H]1Cc2cccc([125I])c2C[C@@H]1N1CCC(c2ccccc2)CC1 [[^125 I]-(+)-IBVM]" endpoint_unit=%ID/g reading=0.26

QUERY: Can you look up the measured tissue uptake at 4 h of O[C@@H]1Cc2cccc([125I])c2C[C@H]1N1CCC(c2ccccc2)CC1 [[^125 I]-(-)-IBVM] for me?
RESULT: 6.26

* * *

Assay: Brain distribution of 5-[125I]iodobenzovesamicol in mice, control and blocked (Example 10, Table III)
Format: in vivo, CD-1 mice
Details: mouse, cerebellum, iv, 10 uCi, Blocked: (±)-vesamicol 0.53 mg/kg, ip, 10 min prior; 4 h after i.v. tracer; normalized to a 20 g mouse; read-out: Concentration, cerebellum
Property: tissue uptake at 4 h (%ID/g)
Give the quantity in %ID/g, number only.

QUERY: Can you look up the measured tissue uptake at 4 h of O[C@@H]1Cc2cccc([125I])c2C[C@H]1N1CCC(c2ccccc2)CC1 [[^125 I]-(-)-IBVM] for me?
RESULT: 0.24

* * *

Assay: in vivo
Conditions: mouse, cerebral cortex, iv
Property: tissue uptake at 4 h
Kindly report the value followed by its unit.

QUERY: Can you look up the measured tissue uptake at 4 h of O[C@H]1Cc2cccc([125I])c2C[C@@H]1N1CCC(c2ccccc2)CC1 [[^125 I]-(+)-IBVM] for me?
RESULT: 0.12 %ID/g

* * *

Test: Brain distribution of 5-[125I]iodobenzovesamicol in mice, control and blocked (Example 10, Table III)
Type: in vivo, CD-1 mice
Conditions: mouse, cortex, iv, 10 uCi, Control; 4 h after i.v. injection; normalized to a 20 g mouse; read-out: Concentration, cortex
Property: tissue uptake at 4 h (%ID/g)
Give the quantity in %ID/g, number only.

QUERY: Can you look up the measured tissue uptake at 4 h of O[C@@H]1Cc2cccc([125I])c2C[C@H]1N1CCC(c2ccccc2)CC1 [[^125 I]-(-)-IBVM] for me?
RESULT: 1.46

* * *

Experiment: Brain distribution of 5-[125I]iodobenzovesamicol in mice, control and blocked (Example 10, Table III)
Format: in vivo, CD-1 mice
Conditions: mouse, cortex, iv, 10 uCi, Blocked: (±)-vesamicol 0.53 mg/kg, ip, 10 min prior; 4 h after i.v. tracer; normalized to a 20 g mouse; read-out: Concentration, cortex
Property: tissue uptake at 4 h (%ID/g)
Give the quantity in %ID/g, number only.

QUERY: Can you look up the measured tissue uptake at 4 h of O[C@@H]1Cc2cccc([125I])c2C[C@H]1N1CCC(c2ccccc2)CC1 [[^125 I]-(-)-IBVM] for me?
RESULT: 0.69

* * *

Experiment: Brain distribution of 5-[125I]iodobenzovesamicol in mice, control and blocked (Example 10, Table III)
Type: in vivo, CD-1 mice
Details: mouse, striatum, iv, 10 uCi, Control; 4 h after i.v. injection; normalized to a 20 g mouse; read-out: Concentration, striatum
Property: tissue uptake at 4 h

QUERY: Can you look up the measured tissue uptake at 4 h of O[C@@H]1Cc2cccc([125I])c2C[C@H]1N1CCC(c2ccccc2)CC1 [[^125 I]-(-)-IBVM] for me?
RESULT: 4.12 %ID/g

* * *

Assay: Brain distribution of 5-[125I]iodobenzovesamicol in mice, control and blocked (Example 10, Table III)
Format: in vivo, CD-1 mice
Conditions: mouse, blood, iv, 10 uCi, Blocked: (±)-vesamicol 0.53 mg/kg, ip, 10 min prior; 4 h after i.v. tracer; normalized to a 20 g mouse; read-out: Concentration, blood
Property: tissue uptake at 4 h (%ID/g)
Give the quantity in %ID/g, number only.

QUERY: Can you look up the measured tissue uptake at 4 h of O[C@@H]1Cc2cccc([125I])c2C[C@H]1N1CCC(c2ccccc2)CC1 [[^125 I]-(-)-IBVM] for me?
RESULT: 0.45
